target: hOX1R (Homo sapiens); assay: FLIPR Ca2+ flux assay, orexin-1 receptor antagonism; details: CHO cells; agonist 70 pM Ala-6,12 human orexin-A
attribute_measured: pIC50
Answers are plain numbers, as −log10 of the molar value.

Below, each entry is followed by its recorded pIC50 result.
CCOC(=O)c1c(OCC)ccnc1O[C@@H]1CC[C@@H](C)N(C(=O)c2ccccc2-n2ncnn2)C1	5.38
COC(=O)c1c(OC)ccnc1O[C@@H]1CC[C@@H](C)N(C(=O)c2cc(F)ccc2-c2noc(C)n2)C1	5.82
COC(=O)c1c(OC)ccnc1O[C@@H]1CC[C@@H](C)N(C(=O)c2ccc(F)cc2-c2nc(C)no2)C1	5.51
CCOc1ccnc(O[C@@H]2CC[C@@H](C)N(C(=O)c3ccccc3-n3nccn3)C2)c1C(=O)OC	5.16
COC(=O)c1c(OC)ccnc1O[C@@H]1CC[C@@H](C)N(C(=O)c2ccc(Cl)cc2-n2nccn2)C1	5.85

Batch request: pIC50 for each of the following compounds.
1. COC(=O)c1c(OC)ccnc1O[C@@H]1CC[C@@H](C)N(C(=O)c2cccc(F)c2-n2nccn2)C1
2. COC(=O)c1c(OC)ccnc1O[C@@H]1CC[C@@H](C)N(C(=O)c2c(F)cccc2-n2nccn2)C1

Solution:
[5.54, 5.64]

----------
biological target: UniProt O43613; assay: FLIPR Ca2+ flux assay, orexin-1 receptor antagonism; settings: CHO cells; agonist 70 pM Ala-6,12 human orexin-A
Provide the reported pIC50 of each item.
Numbers only, as −log10 of the molar value.

COC(=O)c1c(OC)ccnc1O[C@@H]1CC[C@@H](C)N(C(=O)c2c(F)cccc2-c2nc(C)no2)C1 [Example 12]	5.35
COC(=O)c1c(OC)ccnc1O[C@@H]1CC[C@@H](C)N(C(=O)c2cccc(C)c2-n2nccn2)C1 [Example 14]	6.11

Record pIC50 for all entries; do not skip any.
1. COC(=O)c1c(OC)ccnc1O[C@@H]1CC[C@@H](C)N(C(=O)c2cccc(F)c2-c2noc(C)n2)C1 [Example 11]
2. COC(=O)c1c(OC)ccnc1O[C@@H]1CC[C@@H](C)N(C(=O)c2cccc(F)c2-c2nc(C)no2)C1 [Example 18]
3. COC(=O)c1c(OC)ccnc1O[C@@H]1CC[C@@H](C)N(C(=O)c2cc(F)ccc2-c2nc(C)no2)C1 [Example 13]

Solution:
5.64
6.03
5.93

For the 7 compounds below, give their pIC50 values.
1. CCOC(=O)c1c(OC)ccnc1O[C@@H]1CC[C@@H](C)N(C(=O)c2cccc(F)c2-n2nccn2)C1 [Example 26]
2. CCOC(=O)c1c(OC)ccnc1O[C@@H]1CC[C@@H](C)N(C(=O)c2ccccc2-n2nccn2)C1 [Example 25]
3. COC(=O)c1c(OC)ccnc1O[C@@H]1CC[C@@H](C)N(C(=O)c2ccc(F)cc2-n2nccn2)C1 [Example 4]
4. COC(=O)c1c(OC)ccnc1O[C@@H]1CC[C@@H](C)N(C(=O)c2ccc(F)cc2-c2ncccn2)C1 [Example 21]
5. COC(=O)c1c(OC)ccnc1O[C@@H]1CC[C@@H](C)N(C(=O)c2ccccc2-n2ncnn2)C1 [Example 23]
6. COC(=O)c1c(OC)ccnc1O[C@@H]1CC[C@@H](C)N(C(=O)c2cccc(F)c2-c2ncccn2)C1 [Example 22]
7. COC(=O)c1c(OC)ccnc1O[C@@H]1CC[C@@H](C)N(C(=O)c2ccccc2-n2nccn2)C1 [Example 1]

Solution:
1: 5.55; 2: 6.09; 3: 5.50; 4: 5.83; 5: 5.67; 6: 5.42; 7: 5.87

----------
biological target: hOX1R (Homo sapiens); assay: FLIPR Ca2+ flux assay, orexin-1 receptor antagonism; details: CHO cells; agonist 70 pM Ala-6,12 human orexin-A
attribute_measured: IC50 (µM)
Give bare numbers, in µM.

COC(=O)c1c(OC)ccnc1O[C@@H]1CC[C@@H](C)N(C(=O)c2ccc(OC)nc2-n2nccn2)C1	10

Go through the items and report each one's IC50.
1. COC(=O)c1c(OC)ccnc1O[C@@H]1CC[C@@H](C)N(C(=O)c2c(F)cccc2-c2noc(C)n2)C1
2. COC(=O)c1c(OC)ccnc1O[C@@H]1CC[C@@H](C)N(C(=O)c2ccc(OC)cc2-n2nccn2)C1
3. COC(=O)c1c(OC)ccnc1O[C@@H]1CC[C@@H](C)N(C(=O)c2ccc(F)cc2-c2noc(C)n2)C1
4. COC(=O)c1c(OC)ccnc1O[C@@H]1CC[C@@H](C)N(C(=O)c2ccccc2-c2ncccn2)C1
5. COC(=O)c1c(OC)ccnc1O[C@@H]1CC[C@@H](C)N(C(=O)c2cc(F)ccc2-n2nccn2)C1

Solution:
1. 10
2. 10
3. 10
4. 1.87
5. 1.46

----------
For each of the compounds below, state its pIC50.
molecular target: human orexin-2 receptor (Homo sapiens (Human)); assay: FLIPR Ca2+ flux assay, orexin-2 receptor antagonism; details: CHO cells; agonist 70 pM Ala-6,12 human orexin-A; read-out: hOX2R FLIPR IC50
Numbers only, as −log10 of the molar value.

COC(=O)c1c(OC)ccnc1O[C@@H]1CC[C@@H](C)N(C(=O)c2ccc(Cl)cc2-n2nccn2)C1	7.47

Below is a list of compounds. For each, state its recorded pIC50.
1. COC(=O)c1c(OC)cccc1O[C@@H]1CC[C@@H](C)N(C(=O)c2ccsc2-n2nccn2)C1
2. COC(=O)c1c(OC)ccnc1O[C@@H]1CC[C@@H](C)N(C(=O)c2ccc(F)cc2-n2nccn2)C1

Solution:
[7.21, 6.12]

Parameters: items (list). Returns: pIC50 for each item.
1. COC(=O)c1c(OC)ccnc1O[C@@H]1CC[C@@H](C)N(C(=O)c2ccccc2-c2ncccn2)C1
2. COC(=O)c1c(OC)ccnc1O[C@@H]1CC[C@@H](C)N(C(=O)c2cccc(C)c2-n2nccn2)C1
3. COC(=O)c1c(OC)ccnc1O[C@@H]1CC[C@@H](C)N(C(=O)c2ccccc2-n2nccn2)C1

Solution:
[6.94, 7.42, 7.48]

Provide pIC50 for all items below, preserving their order.
1. CCOC(=O)c1c(OC)ccnc1O[C@@H]1CC[C@@H](C)N(C(=O)c2cccc(F)c2-n2nccn2)C1
2. CCOc1ccnc(O[C@@H]2CC[C@@H](C)N(C(=O)c3ccccc3-n3nccn3)C2)c1C(=O)OC

Solution:
[7.40, 6.78]

Your task in this section: give pIC50 for each listed record.
1. COC(=O)c1c(OC)ccnc1O[C@@H]1CC[C@@H](C)N(C(=O)c2cc(F)ccc2-c2noc(C)n2)C1
2. COC(=O)c1c(OC)ccnc1O[C@@H]1CC[C@@H](C)N(C(=O)c2ccc(F)cc2-c2noc(C)n2)C1
3. COC(=O)c1c(OC)ccnc1O[C@@H]1CC[C@@H](C)N(C(=O)c2c(F)cccc2-c2noc(C)n2)C1
4. COC(=O)c1c(OC)ccnc1O[C@@H]1CC[C@@H](C)N(C(=O)c2ccc(F)cc2-c2ncccn2)C1
5. COC(=O)c1c(OC)ccnc1O[C@@H]1CC[C@@H](C)N(C(=O)c2ccc(OC)nc2-n2nccn2)C1
6. COC(=O)c1c(OC)cccc1O[C@@H]1CC[C@@H](C)N(C(=O)c2ccsc2-c2ncccn2)C1

Solution:
7.44
7.23
7.15
7.15
7.28
7.38

----------
So I've got a bunch of molecules here, and I need their IC50 values.
biological target: hOX1R (Homo sapiens); test: FLIPR Ca2+ flux assay, orexin-1 receptor antagonism; conditions: CHO cells; agonist 70 pM Ala-6,12 human orexin-A

Answered cases to consult:
COC(=O)c1c(OC)cccc1O[C@@H]1CC[C@@H](C)N(C(=O)c2ccccc2-c2ncccn2)C1 [Example 35]	> 10 µM
COC(=O)c1c(OC)cccc1O[C@@H]1CC[C@@H](C)N(C(=O)c2ccsc2-n2nccn2)C1 [Example 32]	> 10 µM

Query molecule follows.
Exercise: Entry COC(=O)c1c(OC)cccc1O[C@@H]1CC[C@@H](C)N(C(=O)c2ccsc2-c2ncccn2)C1 [Example 34] : reported IC50 = ?
Solution: > 10 µM

----------
Consider the following molecules; for each one, report its IC50.
target: human orexin-2 receptor (Homo sapiens (Human), UniProt O43614); assay: FLIPR Ca2+ flux assay, orexin-2 receptor antagonism; conditions: CHO cells; agonist 70 pM Ala-6,12 human orexin-A; read-out: hOX2R FLIPR IC50
Sequence (O43614 whole entry): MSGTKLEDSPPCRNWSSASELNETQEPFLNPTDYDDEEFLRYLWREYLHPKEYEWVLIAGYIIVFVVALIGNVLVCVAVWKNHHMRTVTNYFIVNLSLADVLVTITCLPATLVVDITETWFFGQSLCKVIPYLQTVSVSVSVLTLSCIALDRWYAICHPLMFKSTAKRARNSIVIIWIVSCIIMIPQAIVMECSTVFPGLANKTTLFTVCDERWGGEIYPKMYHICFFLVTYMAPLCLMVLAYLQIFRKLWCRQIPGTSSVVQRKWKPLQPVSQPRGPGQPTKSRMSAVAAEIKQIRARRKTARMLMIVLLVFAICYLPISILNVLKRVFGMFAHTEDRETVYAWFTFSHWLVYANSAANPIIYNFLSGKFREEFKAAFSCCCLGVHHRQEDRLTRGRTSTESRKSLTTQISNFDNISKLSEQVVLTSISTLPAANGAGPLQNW
Give bare numbers, in nM.

COC(=O)c1c(OC)cccc1O[C@@H]1CC[C@@H](C)N(C(=O)c2ccccc2-n2ncnn2)C1 [Example 33]	202
CCOC(=O)c1c(OC)ccnc1O[C@@H]1CC[C@@H](C)N(C(=O)c2ccccc2-n2nccn2)C1 [Example 25]	19.3
COC(=O)c1c(OC)ccnc1O[C@@H]1CC[C@@H](C)N(C(=O)c2cc(F)ccc2-c2nc(C)no2)C1 [Example 13]	34.6
COC(=O)c1c(OC)ccnc1O[C@@H]1CC[C@@H](C)N(C(=O)c2ccc(F)cc2-c2nc(C)no2)C1 [Example 5]	52
COC(=O)c1c(OC)ccnc1O[C@@H]1CC[C@@H](C)N(C(=O)c2cccc(F)c2-c2noc(C)n2)C1 [Example 11]	31.8

Kindly give each listed record's IC50.
1. COC(=O)c1c(OC)ccnc1O[C@@H]1CC[C@@H](C)N(C(=O)c2cccc(F)c2-c2ncccn2)C1 [Example 22]
2. COC(=O)c1c(OC)ccnc1O[C@@H]1CC[C@@H](C)N(C(=O)c2c(F)cccc2-n2nccn2)C1 [Example 6]
3. COC(=O)c1c(OC)ccnc1O[C@@H]1CC[C@@H](C)N(C(=O)c2cc(F)ccc2-n2nccn2)C1 [Example 7]
4. COC(=O)c1c(OC)ccnc1O[C@@H]1CC[C@@H](C)N(C(=O)c2ccccc2-n2ncnn2)C1 [Example 23]
5. CCOC(=O)c1c(OCC)ccnc1O[C@@H]1CC[C@@H](C)N(C(=O)c2ccccc2-n2ncnn2)C1 [Example 28]

Solution:
1. 117
2. 82.9
3. 27.6
4. 27.7
5. 18

Respectfully, I request IC50 for each entry included below.
1. COC(=O)c1c(OC)cccc1O[C@@H]1CC[C@@H](C)N(C(=O)c2ccccc2-n2nccn2)C1 [Example 31]
2. COC(=O)c1c(OC)ccnc1O[C@@H]1CC[C@@H](C)N(C(=O)c2cccc(F)c2-c2nc(C)no2)C1 [Example 18]

Solution:
[25, 39.5]

For each of the items listed, what is its IC50?
1. COC(=O)c1c(OC)cccc1O[C@@H]1CC[C@@H](C)N(C(=O)c2ccccc2-c2ncccn2)C1 [Example 35]
2. COC(=O)c1c(OC)ccnc1O[C@@H]1CC[C@@H](C)N(C(=O)c2cccc(F)c2-n2nccn2)C1 [Example 2]
3. COC(=O)c1c(OC)ccnc1O[C@@H]1CC[C@@H](C)N(C(=O)c2ccc(OC)cc2-n2nccn2)C1 [Example 15]

Solution:
35
37
51
